# Test system: M. tuberculosis H37Rv growth inhibition
# protocol notes: M. tuberculosis H37Rv growth inhibitors, H37Rv strain (AID 1626)
# setup conditions: measured here: IC90 against H37Rv
For each of the compounds below, state its IC90.
Give bare numbers, in µM.

# annotated cases, reported IC90 shown
compound: Cc1cc(N2CCN(c3ccccc3)CC2)nc(-n2nc(C)cc2C)n1
IC90 [µM]: 47.3
//
compound: Cc1ccc(N(CCC#N)C(=O)CCl)cc1C
IC90 [µM]: 38.4
//
compound: CN(C)c1ccc(O)c2c1CC1CC3C(N(C)C)C(=O)C(C(N)=O)=C(O)[C@@]3(O)C(=O)C1=C2O (stereo not given in full)
IC90 [µM]: 7.59
//
compound: Oc1cccc(-c2nc3ccc4ccccc4c3c3c2CCC3)c1
IC90 [µM]: 27

Working through the 3 compounds below one at a time, give IC90 for each.
1. O=C(Nc1nnc(C2=COCCO2)o1)c1ccc(Cc2ccccc2)cc1
2. Nc1nc(F)nc2c1ncn2[C@@H]1O[C@H](CO)[C@@H](O)[C@H]1O
3. O=C(/C=C/c1ccc(Cl)cc1)c1cccnc1

## Result
[10.6, 3.95, 4.7]
